Tested Target: dopamine D2 (Homo sapiens)
Sequence (P14416 whole entry, species assumed): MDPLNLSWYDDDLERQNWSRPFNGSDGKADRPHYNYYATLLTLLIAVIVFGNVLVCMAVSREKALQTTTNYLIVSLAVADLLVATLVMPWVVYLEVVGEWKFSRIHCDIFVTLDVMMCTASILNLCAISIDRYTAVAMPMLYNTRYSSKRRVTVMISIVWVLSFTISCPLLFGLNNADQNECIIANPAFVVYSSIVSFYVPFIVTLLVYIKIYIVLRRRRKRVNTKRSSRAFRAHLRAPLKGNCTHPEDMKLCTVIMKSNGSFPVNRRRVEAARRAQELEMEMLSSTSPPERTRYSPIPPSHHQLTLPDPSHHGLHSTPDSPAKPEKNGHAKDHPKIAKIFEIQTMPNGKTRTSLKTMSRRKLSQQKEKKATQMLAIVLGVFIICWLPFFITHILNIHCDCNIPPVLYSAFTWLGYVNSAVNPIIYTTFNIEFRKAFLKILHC
Protocol Notes: Secondary radioligand binding assay (Ki)
Condition: read-out: Experimental Receptor Binding Data-Ki D2; Table 25, GPCR panel
Experimental Endpoint: pKi
pKi is a log-scale quantity: -log10 of the concentration expressed in molar.

# Smiles Str, pKi
data = [
    ("COc1cc2c(cc1OC)C(=O)N(CCCCN1CCN(c3ccccc3OC)CC1)C2", 6.81),
]

input: Please report the recorded pKi for COc1ccc2c(c1)CN(CCCN1CCN(c3ccccc3OC)CC1)C2=O .
output: 5.86

input: Now give it for COc1ccc2c(c1)C(=O)N(CCN1CCN(c3ccccc3OC)CC1)C2 too.
output: 5.78

The reported numbers originate from patent US10381110B2.
